For Pancreatic alpha-amylase (Sus scrofa, UniProt P00690), measured IC50 is reported for the entries below.
Your answer is read as µM, so omit the unit and give the number.

1. COc1cc(O)c2c(=O)c(O)c(-c3ccc(O)c(O)c3)oc2c1 [RHAMNETIN]	73.9

Q: Please look up its IC50: CC(=O)OCC1=C[C@H](O)[C@@H]2C(C(=O)O)=CO[C@@H](O[C@@H]3O[C@H](CO)[C@@H](O)[C@H](O)[C@H]3O)[C@H]12
Result: 69.4
